system: T1, hDcr-C (RNase IIIa, IIIb, dsRBD) (Homo sapiens, UniProt Q9UPY3 1235-1922)
T1 sequence: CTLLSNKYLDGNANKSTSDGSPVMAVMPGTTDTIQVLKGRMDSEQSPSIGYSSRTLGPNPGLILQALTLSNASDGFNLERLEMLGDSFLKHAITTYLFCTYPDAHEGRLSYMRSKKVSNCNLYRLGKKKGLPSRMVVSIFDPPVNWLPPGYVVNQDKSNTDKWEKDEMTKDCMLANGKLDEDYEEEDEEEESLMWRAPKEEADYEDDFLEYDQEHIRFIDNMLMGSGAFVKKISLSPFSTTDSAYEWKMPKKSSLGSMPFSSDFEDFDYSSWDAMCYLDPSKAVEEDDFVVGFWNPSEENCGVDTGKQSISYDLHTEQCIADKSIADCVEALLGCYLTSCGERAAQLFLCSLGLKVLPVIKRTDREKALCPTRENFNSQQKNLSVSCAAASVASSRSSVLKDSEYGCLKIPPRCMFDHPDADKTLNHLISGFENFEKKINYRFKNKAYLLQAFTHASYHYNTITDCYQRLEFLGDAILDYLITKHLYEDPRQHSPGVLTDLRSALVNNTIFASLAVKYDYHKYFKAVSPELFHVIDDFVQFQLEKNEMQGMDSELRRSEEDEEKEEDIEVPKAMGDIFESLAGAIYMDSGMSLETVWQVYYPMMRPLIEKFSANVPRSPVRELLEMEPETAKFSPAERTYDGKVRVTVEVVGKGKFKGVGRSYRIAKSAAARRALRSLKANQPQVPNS
assay_notes: filter binding
reported_endpoint: Kd (nM)

>>> obs_value("37ab (dsRNA) RNA 1: UGAGGUAGUAGGUUGUAUAGUUUGAAAGUUCACGAUU RNA 2: UCGUGAACUUUCAAACUAUACAACCUACUACCUCAUU")
300
